All values here come from patent US12486284B2.

tested on: USP28 (Homo sapiens, UniProt Q96RU2)
Construct: purchased R&D Systems
Sequence (Q96RU2 whole entry): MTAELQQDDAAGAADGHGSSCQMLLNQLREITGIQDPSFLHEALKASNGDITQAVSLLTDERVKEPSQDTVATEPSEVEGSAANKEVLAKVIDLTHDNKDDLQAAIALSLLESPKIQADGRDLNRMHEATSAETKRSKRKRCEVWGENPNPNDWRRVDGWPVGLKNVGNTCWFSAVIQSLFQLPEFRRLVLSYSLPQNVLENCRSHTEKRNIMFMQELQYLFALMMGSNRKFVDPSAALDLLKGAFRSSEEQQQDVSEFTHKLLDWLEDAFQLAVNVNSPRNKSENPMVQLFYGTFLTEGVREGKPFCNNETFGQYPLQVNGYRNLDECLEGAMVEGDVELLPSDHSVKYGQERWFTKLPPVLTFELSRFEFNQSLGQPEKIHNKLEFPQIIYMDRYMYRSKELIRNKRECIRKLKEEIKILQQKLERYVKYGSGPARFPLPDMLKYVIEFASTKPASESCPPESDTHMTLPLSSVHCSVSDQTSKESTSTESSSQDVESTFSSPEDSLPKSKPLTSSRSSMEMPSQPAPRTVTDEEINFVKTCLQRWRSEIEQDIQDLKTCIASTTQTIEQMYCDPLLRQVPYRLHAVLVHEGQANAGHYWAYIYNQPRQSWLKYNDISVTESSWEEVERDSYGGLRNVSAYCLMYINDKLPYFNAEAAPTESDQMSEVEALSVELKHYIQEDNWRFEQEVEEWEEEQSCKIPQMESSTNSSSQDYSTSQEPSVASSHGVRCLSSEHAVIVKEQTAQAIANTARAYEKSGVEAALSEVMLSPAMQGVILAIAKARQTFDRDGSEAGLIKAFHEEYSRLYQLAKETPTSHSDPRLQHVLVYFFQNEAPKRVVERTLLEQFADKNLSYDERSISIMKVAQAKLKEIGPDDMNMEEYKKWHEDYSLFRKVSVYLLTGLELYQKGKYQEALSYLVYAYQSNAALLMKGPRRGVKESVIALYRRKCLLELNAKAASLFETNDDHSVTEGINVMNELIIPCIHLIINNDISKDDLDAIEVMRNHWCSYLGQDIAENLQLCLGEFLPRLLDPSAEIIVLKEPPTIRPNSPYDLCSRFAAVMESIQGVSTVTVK
assay remarks: USP28 activity measured using ubiquitin-rhodamine 110 method
Type: biochemical
details: purified USP28 4 nM, ubiquitin-rhodamine 110 125 nM, 30 min preincubation; read-out: Inhibitory activity against USP28 (IC50)
The entries below are paired with their reported IC50.

INSERT INTO measurements (compound, reported_metric, data_value) VALUES
  ('CNc1c(C(=O)NCCc2ccc(C3CC4CC3CN4)cc2)sc2nc(C)ccc12 (stereo not shown)', 'IC50', '< 100 nM');

Shift focus to the following entry.
Any idea what IC50 was measured for CNc1c(C(=O)NCCc2c[nH]c3ccccc23)sc2nc(C)ccc12 ?
< 100 nM
